- Test target: Mitogen-activated protein kinase 12 (Homo sapiens) (UniProt P53778)
- Sequence (P53778 whole entry): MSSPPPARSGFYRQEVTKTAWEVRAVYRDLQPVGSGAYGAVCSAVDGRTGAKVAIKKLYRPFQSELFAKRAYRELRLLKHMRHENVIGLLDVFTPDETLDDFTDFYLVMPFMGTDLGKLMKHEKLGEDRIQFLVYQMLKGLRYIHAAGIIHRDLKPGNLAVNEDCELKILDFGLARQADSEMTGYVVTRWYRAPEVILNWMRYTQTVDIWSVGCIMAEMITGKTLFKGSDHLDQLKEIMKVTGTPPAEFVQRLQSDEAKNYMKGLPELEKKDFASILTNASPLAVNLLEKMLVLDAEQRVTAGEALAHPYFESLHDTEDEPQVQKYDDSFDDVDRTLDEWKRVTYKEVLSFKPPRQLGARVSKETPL
- Test context: at 0.1 µM
- Description: GSK_PKIS: P38gamma mean inhibition at 0.1 uM [Nanosyn]
Reported inhibition values are given for each entry in this list.
Note: unit % is implicit; provide only the numeric part.

Some solved entries appear below for comparison.
COc1ccc(-c2ccncc2)cc1C(N)=O: 4.29
Cc1nnc(-c2ccc(C)c(-c3ccc(C(=O)Nc4cccc(C#N)c4)cc3)c2)o1: -0.3
Nc1ncnc2occ(-c3ccc(NC(=O)Nc4cccc(C(F)(F)F)c4)cc3)c12: 7.81

INPUT: # inhibition lookup, item CCn1c(-c2nonc2N)nc2cncc(C(=O)N3CC[C@H](N)C3)c21
OUTPUT: 0.14

INPUT: Query: inhibition; subject: CN1CCC(C(=O)Nc2n[nH]c3nnc(-c4ccccc4)cc23)CC1
OUTPUT: 3.05

INPUT: // query inhibition value for entry CCN1CCC(CC(=O)Nc2n[nH]c3nc(-c4cccs4)c(Br)cc23)CC1
OUTPUT: -1.67

INPUT: Request the reported inhibition associated with Cc1nn(C)c2cc(N(C)c3ccnc(Nc4cccc(S(N)(=O)=O)c4)n3)ccc12
OUTPUT: -0.41

INPUT: I have this molecule here, O=C1NC(=O)C(c2cccc(Cl)c2)=C1Nc1ccc(O)c(Cl)c1 , and I need its recorded inhibition.
OUTPUT: -0.58

INPUT: Would you mind telling me what inhibition value was observed for COC(=O)Nc1nc2cc(Oc3cccc(NC(=O)Nc4cc(C(F)(F)F)ccc4F)c3)ccc2[nH]1 ?
OUTPUT: 0.33
